- Test system: NS5A chimeric genotype 2a JFH-1 replicon with genotype 2a J6 strain NS5A gene (M31 present)
- Measurement protocol: microbe, parasite or virus in culture
- Format: cell-based, HCV
- Assay setup: Hepatitis C virus, read-out: 2a J6
Below: a set of entries, each annotated with reported EC50.

The examples below pair each entry with its known result.
Molecule | Attribute measured | Measured result
CC[C@H](C)[C@H](NC(=O)OC)C(=O)N1C[C@@H](COC)C[C@H]1c1ncc(-c2ccc3c(c2)COc2cc4c(ccc5nc([C@@H]6CC[C@H](C)N6C(=O)[C@@H](NC(=O)OC)C(C)C)[nH]c54)cc2-3)[nH]1 | EC50 | < 1 nM
CCC(C)[C@H](NC(=O)OC)C(=O)N1C[C@@H](C)CC1c1ncc(-c2ccc3c(c2)COc2cc4c(ccc5nc([C@@H]6CC(COC)CN6C(=O)[C@@H](NC(=O)OC)C(C)C)[nH]c54)cc2-3)[nH]1 (stereo in doubt) | EC50 | < 1 nM
COC[C@@H]1C[C@@H](c2nc3ccc4cc5c(cc4c3[nH]2)OCc2cc(-c3cnc([C@@H]4CCCN4C(=O)[C@@H](NC(=O)OC)C(C)C)[nH]3)ccc2-5)N(C(=O)[C@H](NC(=O)OC)c2ccccc2)C1 | EC50 | < 1 nM

Please turn your attention to the following entry.
Can you share its EC50? I mean this molecule: `COC(=O)N[C@H](C(=O)N1CCC[C@H]1c1nc2c([nH]1)CCc1cc3c(cc1-2)OCc1cc(-c2cnc([C@@H]4CCCN4C(=O)[C@H](NC(=O)OC)c4ccccc4)[nH]2)ccc1-3)C(C)C`
< 1 nM

====

- System: stable HCV 1a RLuc replicon cells (genotype 1a H77 replicon)
- Measurement protocol: microbe, parasite or virus in culture
- Assay type: cell-based
- Assay setup: Hepatitis C virus, read-out: 1a (nM)
Below: a set of entries, each annotated with reported EC50.
The reply should be a number in nM, with the unit left off.

Compound smiles | EC50 [nM]
COC[C@H]1C[C@@H](c2nc3c([nH]2)-c2cc4c(cc2CC3)-c2ccc(-c3cnc([C@@H]5CCCN5C(=O)[C@@H](NC(=O)OC)C(C)C)[nH]3)cc2CO4)N(C(=O)[C@H](NC(=O)OC)c2ccccc2)C1 | 0.028

Can you share its EC50? I mean this compound: `COC(=O)N[C@H](C(=O)N1CCC[C@H]1c1ncc(-c2ccc3c(c2)COc2cc4c(ccc5nc([C@@H]6CCCN6C(=O)[C@H](NC(=O)C6CC6)c6ccccc6)[nH]c54)cc2-3)[nH]1)C(C)C`
0.015

Can you share its EC50? I mean this compound: `COC(=O)N[C@H](C(=O)N1C[C@@H](C)C[C@H]1c1ncc(-c2ccc3c(c2)COc2cc4c(ccc5nc([C@@H]6C[C@H](C)CN6C(=O)[C@H](NC(=O)OC)c6ccccc6)[nH]c54)cc2-3)[nH]1)C(C)C`
0.011

Can you share its EC50? I mean this compound: `CC[C@H](C)[C@H](NC(=O)OC)C(=O)N1C[C@@H](COC)C[C@H]1c1nc2ccc3cc4c(cc3c2[nH]1)OCc1cc(-c2cnc([C@@H]3CC[C@H](C)N3C(=O)[C@@H](NC(=O)OC)C(C)C)[nH]2)ccc1-4`
0.005
